What inhibition was measured for each of the following?
biological target: RAC-gamma serine/threonine-protein kinase (Homo sapiens) (UniProt Q9Y243); details: at 0.1 µM
Sequence (Q9Y243 whole entry): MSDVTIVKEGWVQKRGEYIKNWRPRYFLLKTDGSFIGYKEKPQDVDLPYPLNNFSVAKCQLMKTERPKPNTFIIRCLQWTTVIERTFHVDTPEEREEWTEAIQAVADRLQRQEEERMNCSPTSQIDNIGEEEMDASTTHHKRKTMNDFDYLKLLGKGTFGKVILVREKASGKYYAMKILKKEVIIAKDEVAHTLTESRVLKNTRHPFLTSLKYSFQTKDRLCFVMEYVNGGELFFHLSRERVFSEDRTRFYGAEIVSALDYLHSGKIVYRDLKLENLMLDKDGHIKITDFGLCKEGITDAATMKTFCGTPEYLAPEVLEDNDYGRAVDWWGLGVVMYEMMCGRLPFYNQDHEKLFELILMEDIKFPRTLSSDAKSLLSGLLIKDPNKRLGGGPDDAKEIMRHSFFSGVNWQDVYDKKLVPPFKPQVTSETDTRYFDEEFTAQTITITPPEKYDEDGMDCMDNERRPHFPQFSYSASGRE
Description: GSK_PKIS: AKT3 mean inhibition at 0.1 uM [Nanosyn]
One number for each entry, in %.

Would you mind telling me what inhibition value was observed for CN(C)C(=O)O[C@@H]1CN[C@@H](C#Cc2cc3ncnc(Nc4ccc(OCc5cccc(F)c5)c(Cl)c4)c3s2)C1 ? -0.71

Take each entry in turn and give its inhibition.
1. [O-][S+]1CCN(Cc2ccc(-c3ccc4ncnc(Nc5ccc(OCc6ccccc6)c(Cl)c5)c4c3)o2)CC1
2. COc1cc2ncnc(Nc3ccc4c(cnn4Cc4ccccc4)c3)c2cc1OC
3. COc1cc2ncnc(Nc3ccc(C)c(O)c3)c2cc1OC
4. ON=C1CCc2cc(-c3nc(C4CCNCC4)[nH]c3-c3ccncc3)ccc21
5. Cc1ccc(Nc2ccnc(Nc3cccc(C(N)=O)c3)n2)cc1O
6. Cc1nc(-c2ccccc2)n2nc(NCCCN3CCOCC3)ncc12
7. Cc1cc(-c2ccccn2)cc(C)c1/C=C/c1cncc(-c2nn[nH]n2)c1

0.15
0.08
1.98
-0.56
-2.03
0.57
2.14

Take each entry in turn and give its inhibition.
1. CN(c1ccc(NC(=O)Nc2ccc(OC(F)(F)F)cc2)cc1)c1ccnc(Nc2cccc(S(N)(=O)=O)c2)n1
2. COC(=O)c1ccc2c(c1)C(=Cc1cc(Br)c(O)c(Br)c1)C(=O)N2

0.16
1.09
